- System: 966289-007-R4-J1-PDC complex spheroid viability
- Run description: Anticancer human tumor 966289-007-R4-J1-PDC patient-derived pancreatic adenocarcinoma cell line growth inhibition [GQUAD]; active = viability on the fitted dose curve at most 10% of control; inactive = the rest
- Recorded conditions: second compound 10 µM; first compound 0.1 µM
The reply should be one of these categories: true (1) (active), false (0) (inactive)

Worked examples follow.
O=C(NO)c1cnc(N2CCN(S(=O)(=O)c3ccc4ccccc4c3)CC2)nc1 + Cc1cnc(CNC(=O)c2c(=O)c3ccc(N4CCCN(C)CC4)nc3n3c2sc2ccccc23)cn1    true (1)
CC(C)(O)C1CCC(Nc2ccc3ncc(-c4cccc(C(F)(F)F)c4)n3n2)CC1 (stereo not given) + CN(C)c1ccc(Nc2c3ccc(NC(=O)CCN4CCCC4)cc3nc3cc(NC(=O)CCN4CCCC4)ccc23)cc1    false (0)
O=C(c1cc(Cc2n[nH]c(=O)c3ccccc23)ccc1F)N1CCN(C(=O)C2CC2)CC1 + Cc1cnc(CNC(=O)c2c(=O)c3ccc(N4CCCN(C)CC4)nc3n3c2sc2ccccc23)cn1    true (1)
CC1COCCN1c1cc(-c2ccnn2C)c2ccnc(-c3ccn[nH]3)c2n1 (stereo not given) + Cc1cnc(CNC(=O)c2c(=O)c3ccc(N4CCCN(C)CC4)nc3n3c2sc2ccccc23)cn1    true (1)

Okay, now this compound:
Look up the recorded call for COc1cc(C2c3cc4c(cc3C(OC3OC5COC(C)OC5C(O)C3O)C3COC(=O)C23)OCO4)cc(OC)c1O (stereo not given) + Cc1[nH]c2ccc(F)cc2c1-c1nc2c3cccnc3c3ncccc3c2[nH]1 in this test.
false (0)

###

- Tested on: 966289-007-R4-J1-PDC complex spheroid viability
- Run description: Anticancer human tumor 966289-007-R4-J1-PDC cell line growth inhibition [GQUAD];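 also: spheroids exposed to the agents for seven days before readout; percent viability relative to DMSO vehicle control wells taken as 100%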
- Recorded conditions: second compound 0.1 µM; first compound 10 µM; hits give low values
Each entry below carries its recorded viability, T/C.
Field: numeric (%). Do not append units.

CC1COCCN1c1cc(C2(S(C)(=N)=O)CC2)nc(-c2ccnc3[nH]ccc23)n1 (configuration not stated) + Cc1cnc(CNC(=O)c2c(=O)c3ccc(N4CCCN(C)CC4)nc3n3c2sc2ccccc23)cn1    4.26

Next molecule, viability, T/C to be filled in.
// viability, T/C lookup, key: CC(=O)O[C@H]1C(=O)[C@@]2(C)[C@H]([C@H](OC(=O)c3ccccc3)[C@]3(O)C[C@H](OC(=O)[C@H](O)[C@@H](NC(=O)c4ccccc4)c4ccccc4)C(C)=C1C3(C)C)[C@]1(OC(C)=O)CO[C@@H]1C[C@@H]2O + Cc1cnc(CNC(=O)c2c(=O)c3ccc(N4CCCN(C)CC4)nc3n3c2sc2ccccc23)cn1
5.96

###

- Test system: 966289-007-R4-J1-PDC complex spheroid viability
- Run description: Anticancer human tumor 966289-007-R4-J1-PDC cell line growth inhibition [GQUAD]; active = viability on the fitted dose curve at most 10% of control; inactive = the rest;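 also: spheroids exposed to the agents for seven days before readout; percent viability relative to DMSO vehicle control wells taken as 100%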
- Recorded conditions: second compound 3.16 µM; first compound 0.316 µM
The reply should be one of these categories: active, inactive

Worked examples follow.
CC(C)n1c(=O)n(C)c2cnc3cc(F)c(-c4ccc(OCCCN5CCCCC5)nc4)cc3c21 + CN(C)c1ccc(Nc2c3ccc(NC(=O)CCN4CCCC4)cc3nc3cc(NC(=O)CCN4CCCC4)ccc23)cc1    inactive
CC1COCCN1c1cc(C2(O)CC3CCC(C2)O3)c2cnn(-c3ccn[nH]3)c2n1 (stereo not given) + Cc1cnc(CNC(=O)c2c(=O)c3ccc(N4CCCN(C)CC4)nc3n3c2sc2ccccc23)cn1    active
COc1cccc2c1C(=O)c1c(O)c3c(c(O)c1C2=O)CC(O)(C(=O)CO)CC3OC1CC(N)C(O)C(C)O1 (stereo not given) + CN(C)c1ccc(Nc2c3ccc(NC(=O)CCN4CCCC4)cc3nc3cc(NC(=O)CCN4CCCC4)ccc23)cc1    active
Cn1ncnc1[C@H]1c2n[nH]c(=O)c3cc(F)cc(c23)N[C@@H]1c1ccc(F)cc1 + Cc1cnc(CNC(=O)c2c(=O)c3ccc(N4CCCN(C)CC4)nc3n3c2sc2ccccc23)cn1    active

Okay, now this molecule:
Look up the recorded call for Cc1cccc(N(C)C(=O)C2C(O)CCN2c2nc(C)cc(C(F)(F)F)c2C#N)c1 (stereo not given) + Cc1cnc(CNC(=O)c2c(=O)c3ccc(N4CCCN(C)CC4)nc3n3c2sc2ccccc23)cn1 in this test.
active
